Reported EC50 values for a set of compounds
Target: human RORγ (Homo sapiens)
Construct: human, NM_005060.3 and from Ser253 to Lys518; expressed in transfected cells; host or cells: CHO cells (transient co-transfection with pG5-Luc reporter)
Sequence (P51449 253-518): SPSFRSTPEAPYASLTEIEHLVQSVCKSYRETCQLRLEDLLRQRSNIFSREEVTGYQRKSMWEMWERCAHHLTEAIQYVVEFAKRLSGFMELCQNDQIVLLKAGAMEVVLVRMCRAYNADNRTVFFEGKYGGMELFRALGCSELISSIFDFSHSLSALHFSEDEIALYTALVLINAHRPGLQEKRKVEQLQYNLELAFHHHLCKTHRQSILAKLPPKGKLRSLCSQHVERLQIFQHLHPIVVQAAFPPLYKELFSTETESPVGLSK
Test: Luciferase reporter gene assay of inhibitory effect against RORγ transcriptional activity (GAL4-hRORγ plasmid in CHO cells)
Format: cell-based
Details: read-out: LUC EC50 (μM) hRORg

Completed entries (count: 5):
Simply: Cc1ccc(NC(=O)CC(CCC(=O)N(C)C)c2nnc(CCCC(C)C)n2C2CC2)c(C)c1 (racemic) , human RORγ (Homo sapiens), EC50 = < 3 µM

Simply: `Cc1ccc(NC(=O)C[C@H](CCC(=O)O)c2noc(-c3cc(CCC(C)C)on3)c2C2CC2)c(Cl)c1` , human RORγ (Homo sapiens), EC50 = < 3 µM

Simply: `CC(C)(C)Cc1cc(-c2noc([C@@H](CCC(=O)O)CC(=O)Nc3ccc(Cl)cc3Cl)c2C2CC2)no1` , human RORγ (Homo sapiens), EC50 = < 3 µM

Simply: `Cc1ccc(NC(=O)C[C@H](CCC(=O)O)c2noc(-c3cc(CCC(C)C)on3)c2C(F)(F)F)c(Cl)c1` , human RORγ (Homo sapiens), EC50 = < 3 µM

Simply: `Cc1ccc(NC(=O)C[C@H](OCCO)c2nnc([C@H]3C[C@@H](CC(C)C)C3)n2C2CC2)c(C)c1` , human RORγ (Homo sapiens), EC50 = < 3 µM

# input for lookup
Simply: CC(=O)N1C[C@H](C(=O)Nc2ccc(C)cc2C)[C@@H](c2nnc([C@H]3C[C@@H](OC(C)C)C3)n2C2CC2)C1 [Example F-336] , human RORγ (Homo sapiens), EC50 = > 3 µM
